measuredOn: T1, his-tagged human TIGIT (Acro Biosystems #TIT-H52H3) (human, UniProt Q495A1 22-141)
T1 construct: Bought protein; also called His-tagged-TIGIT (human); not shown: his tag
T1 sequence (looked up): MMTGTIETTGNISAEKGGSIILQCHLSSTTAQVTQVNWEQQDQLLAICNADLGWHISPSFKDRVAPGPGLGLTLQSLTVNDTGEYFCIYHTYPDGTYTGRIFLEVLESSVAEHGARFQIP
measurementDescription: SPR (Carterra LSA), scFv-Fc captured, His-TIGIT analyte
recordedMetric: pKd
Conceptually, pKd converts a concentration in mol/L into minus its log10.

Using the record for 43645p1.C9 (scFv, V domains shown) VH: EVQLLESGGGLVQPGGSLRLSCAASGFTFSDFWMSWVRQAPGKGLEWVSSIINIQTYDYATYYADSVKGRFTISRDNSKNTLYLQMNSLRAEDTAIYYCAKDVAPGLPGGMDVWGQGTTVTVSS VL: QSVLTQPPSASGTPGQRVTISCSGSNSNIRNNFVSWYQHLPGTAPKLLIYGNSQRPSGVPDRFSGSKSGTSASLAISGLQSEDEADYYCTSWDFSVSGWVFGGGTKLTVL , report its pKd. 9.71

Requested field: pKd. Item: 43586p1.2.C11 (scFv, V domains shown) VH: EVQLLESGGGLVQPGGSLRLSCAASGFTFDDYVMSWVRQAPGKGLEWVSLINWNGDKTYCADSVKGRFTISRDNSKNTLYLQMNSLRAEDTAIYYCAKHWIVFQYGMDVWGQGTTVTVSS VL: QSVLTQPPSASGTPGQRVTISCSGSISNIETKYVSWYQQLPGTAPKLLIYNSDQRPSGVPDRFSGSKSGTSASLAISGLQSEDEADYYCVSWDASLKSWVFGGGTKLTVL 10.29

Entry under review: 43645p1.C11 (scFv, V domains shown) VH: EVQLLESGGGLVQPGGSLRPSCATSGFTFSSYWMSWVRQAPGKGLEWVSGIHISDSTYYADSVKGRFTISRDNSKNTLYLQMNSLRAEDTAVYYCAKGHTVLQYGMDVWGQGTTVTVSS VL: QSGLTQPPSASGTPGQRVTISCSGDISNTRNNYVSWYQQLPGTAPKLLIYGNHQRPSGVPDRFSGSKSATSASLAISGLQSEDEADYYCGTWDNTLNAWVFGGGTKLTVL . Reported pKd? 10.05

What pKd value was documented for this binder, 43352p1.H8 (scFv, V domains shown) VH: DVQLVESGGGVVRPGESLRLSCAASGFNFSTYAMNWVRQAPGEGLEWVSGISGRSSGDTTYYADSVRGWFTVSRDNSKNTLYLQMSSLRAEDTAVYYCARETWIRGYFDYWGLGTLVTVSS VL: QSVLTQPPSASGTPGQRVTISCSGSRSNLGNNLVYWYQQLPGTAPKLLIYFNNERPSGVPDRFSGSKSGTSASLAISGVQSEDEADYYCATWDDSLNGWVFGGGTKLTVL ? 9.71

What value of pKd has been recorded for this entry: 43586p1.2.B8 (scFv, V domains shown) VH: EVQLLESGGGLVQPGGSLRLSCAASGFTFTSYLMSWVRQAPGKGLEWVSTITWDGDRTYYADSVKGRFTISRDNSKNTLYLQMNSLRVGDTAVYYCAKHWTVFQYGMDVWGQGTTVTVSS VL: QSVLTQPASASGTPGQRVTITCSGTISNIETKYVSWYQQLPGTAPKLLIYGNHQRPSGVPDRFSGSKSGTSASLAISGLQSEDEADYYCASWENDLKSWVFGGGTKLTVL 9.90
